Provenance of the data: the supplement of paper PMC11061612

Test system: DMS-273 (Small Cell Lung Carcinoma)
assay-remarks: combination Emax (second highest fraction inhibited in the dose matrix, 72 h); higher = more inhibition; extreme values may be limits of the assay
endpoint-label: combination Emax
# respond with the number and nothing more

Cn1cnc2c(F)c(Nc3ccc(Br)cc3Cl)c(C(=O)NOCCO)cc21 [Selumetinib] + C[C@@H]1COCCN1C2=NC(=NC(=C2)C3(CC3)[S@](=N)(=O)C)C4=C5C=CNC5=NC=C4 [AZD6738] (first compound max 10 µM, 7x7, partner max 10 µM)
0.811

Test system DMS-273 (Small Cell Lung Carcinoma); read-out combination Emax; what value for COc1nnc2ccc(N3CCC(c4ccc(OCCN5CCN(C)C(=O)[C@H]5C)cc4)CC3)nn12 [AZD5153] + CC1(C)CCC(CN2CCN(c3ccc(C(=O)NS(=O)(=O)c4ccc(NCC5CCOCC5)c([N+](=O)[O-])c4)c(Oc4cnc5[nH]ccc5c4)c3)CC2)=C(c2ccc(Cl)cc2)C1 [Venetoclax] (first compound max 1 µM, 7x7, partner max 1 µM) ? 0.749

Find combination Emax (DMS-273 (Small Cell Lung Carcinoma)) for the entry Cc1cc2ncnn2cc1Nc1ncc2c(n1)n(C1CCOCC1)c(=O)n2C [AZD7648] + CCN(CCO)CCCOc1ccc2c(Nc3cc(CC(=O)Nc4cccc(F)c4)[nH]n3)ncnc2c1 [AZD2811] (first compound max 10 µM, 7x7, partner max 1 µM) 0.82

Give combination Emax (DMS-273 (Small Cell Lung Carcinoma)) of the following compound: Cc1cc2ncnn2cc1Nc1ncc2c(n1)n(C1CCOCC1)c(=O)n2C [AZD7648] + C=CCn1c(=O)c2cnc(Nc3ccc(N4CCN(C)CC4)cc3)nc2n1-c1cccc(C(C)(C)O)n1 [AZD1775] (first compound max 10 µM, partner max 1 µM) 0.611

Please provide the recorded combination Emax for CC1(C)CCC(CN2CCN(c3ccc(C(=O)NS(=O)(=O)c4ccc(NCC5CCOCC5)c([N+](=O)[O-])c4)c(Oc4cnc5[nH]ccc5c4)c3)CC2)=C(c2ccc(Cl)cc2)C1 [Venetoclax] + CN(C)CCCOc1ccc(-c2ccc3ncc4c(c3c2)n(C2CCOCC2)c(=O)n4C)cn1 [AZD0156] (first compound max 1 µM, 7x7, partner max 1 µM) , tested on DMS-273 (Small Cell Lung Carcinoma). 0.355

Please provide the recorded combination Emax for CC1(C)CCC(CN2CCN(c3ccc(C(=O)NS(=O)(=O)c4ccc(NCC5CCOCC5)c([N+](=O)[O-])c4)c(Oc4cnc5[nH]ccc5c4)c3)CC2)=C(c2ccc(Cl)cc2)C1 [Venetoclax] + C=CCn1c(=O)c2cnc(Nc3ccc(N4CCN(C)CC4)cc3)nc2n1-c1cccc(C(C)(C)O)n1 [AZD1775] (first compound max 1 µM, partner max 1 µM) , tested on DMS-273 (Small Cell Lung Carcinoma). 0.749

Tell me reported combination Emax for COc1nnc2ccc(N3CCC(c4ccc(OCCN5CCN(C)C(=O)[C@H]5C)cc4)CC3)nn12 [AZD5153] + CCN(CCO)CCCOc1ccc2c(Nc3cc(CC(=O)Nc4cccc(F)c4)[nH]n3)ncnc2c1 [AZD2811] (first compound max 1 µM, 7x7, partner max 1 µM) , tested with DMS-273 (Small Cell Lung Carcinoma). 0.901

Form entry - test system: DMS-273 (Small Cell Lung Carcinoma); read-out: combination Emax; compound: COc1cccc(OCCCN)c1-c1cc(Nc2cnc(C#N)cn2)n[nH]1 [Prexasertib] + C=CCn1c(=O)c2cnc(Nc3ccc(N4CCN(C)CC4)cc3)nc2n1-c1cccc(C(C)(C)O)n1 [AZD1775] (first compound max 1 µM, partner max 1 µM) 0.984

* * *

Test system: CAL-78 (Chondrosarcoma)
assay-remarks: combination Emax (second highest fraction inhibited in the dose matrix, 72 h); higher = more inhibition; extreme values may be limits of the assay
endpoint-label: combination Emax

Fill blank: measured combination Emax of the compound CC1(C)CCC(CN2CCN(c3ccc(C(=O)NS(=O)(=O)c4ccc(NCC5CCOCC5)c([N+](=O)[O-])c4)c(Oc4cnc5[nH]ccc5c4)c3)CC2)=C(c2ccc(Cl)cc2)C1 [Venetoclax] + Cc1cc2ncnn2cc1Nc1ncc2c(n1)n(C1CCOCC1)c(=O)n2C [AZD7648] (first compound max 1 µM, 7x7, partner max 10 µM) is ____. 0.234

For the compound shown here, COc1nnc2ccc(N3CCC(c4ccc(OCCN5CCN(C)C(=O)[C@H]5C)cc4)CC3)nn12 [AZD5153] + CC1(C)CCC(CN2CCN(c3ccc(C(=O)NS(=O)(=O)c4ccc(NCC5CCOCC5)c([N+](=O)[O-])c4)c(Oc4cnc5[nH]ccc5c4)c3)CC2)=C(c2ccc(Cl)cc2)C1 [Venetoclax] (first compound max 1 µM, 7x7, partner max 1 µM) , give the reported combination Emax. 0.457

Name the recorded combination Emax for CC(=O)Nc1cccc(-n2c(=O)n(C3CC3)c(=O)c3c(Nc4ccc(I)cc4F)n(C)c(=O)c(C)c32)c1 [Trametinib] + Cc1nc(-c2cn3c(n2)-c2ccc(-c4cnn(C(C)(C)C(N)=O)c4)cc2OCC3)n(C(C)C)n1 [Taselisib] (first compound max 1 µM, 7x7, partner max 10 µM) . 0.512

* * *

Tested on: DOV13 (Ovarian Carcinoma);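 note: after 72 h of two-drug dosing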
assay-remarks: Bliss excess, mean over the matrix (fraction); higher = more synergy
endpoint-label: Bliss excess
Could you respond with only the numeric value?

Cc1c2c(nn1C)CSCc1cc(n(C)n1)CSc1cc(c3ccccc3c1)OCCCc1c(C(=O)O)n(C)c3c-2c(Cl)ccc13 [AZD5991] + Nc1ccn([C@@H]2O[C@H](CO)[C@@H](O)C2(F)F)c(=O)n1 [Gemcitabine] (first compound max 1 µM, 7x7, partner max 0.3 µM)
-0.0605
N#Cc1cnc(Nc2cc(NC[C@H]3CNCCO3)c(C(F)(F)F)cn2)cn1 [SRA737] + Nc1ccn([C@@H]2O[C@H](CO)[C@@H](O)C2(F)F)c(=O)n1 [Gemcitabine] (first compound max 10 µM, 7x7, partner max 0.3 µM)
0.0821
CC1(C)CCC(CN2CCN(c3ccc(C(=O)NS(=O)(=O)c4ccc(NCC5CCOCC5)c([N+](=O)[O-])c4)c(Oc4cnc5[nH]ccc5c4)c3)CC2)=C(c2ccc(Cl)cc2)C1 [Venetoclax] + Cc1cc2ncnn2cc1Nc1ncc2c(n1)n(C1CCOCC1)c(=O)n2C [AZD7648] (first compound max 1 µM, 7x7, partner max 10 µM)
0.0659
CN(C)CCCOc1ccc(-c2ccc3ncc4c(c3c2)n(C2CCOCC2)c(=O)n4C)cn1 [AZD0156] + C[C@@H]1COCCN1C2=NC(=NC(=C2)C3(CC3)[S@](=N)(=O)C)C4=C5C=CNC5=NC=C4 [AZD6738] (first compound max 1 µM, 7x7, partner max 10 µM)
-0.0395
COc1cc2c(cc1OCCCCCOc1cc3c(cc1OC)C(=O)N1C=C(C)C[C@H]1C=N3)N=C[C@@H]1CC(C)=CN1C2=O [SG3199] + O=C(c1cc(Cc2n[nH]c(=O)c3ccccc23)ccc1F)N1CCN(C(=O)C2CC2)CC1 [Olaparib] (first compound max 0.001 µM, 7x7, partner max 10 µM)
-0.0443
COc1cccc(OCCCN)c1-c1cc(Nc2cnc(C#N)cn2)n[nH]1 [Prexasertib] + CCc1c2c(nc3ccc(O)cc13)-c1cc3c(c(=O)n1C2)COC(=O)[C@]3(O)CC [SN-38] (first compound max 1 µM, 7x7, partner max 0.3 µM)
-0.0444

--- query ---
Any idea what Bliss excess was measured for NC1(C(=O)N[C@@H](CCO)c2ccc(Cl)cc2)CCN(c2ncnc3[nH]ccc23)CC1 [Capivasertib] + CCN(CCO)CCCOc1ccc2c(Nc3cc(CC(=O)Nc4cccc(F)c4)[nH]n3)ncnc2c1 [AZD2811] (first compound max 10 µM, 7x7, partner max 1 µM) ? -0.0392
